# methodDescription: qHTS profiling of the MIPE4 collection as inhibitors of Plasmodium falciparum (3D7) proliferation (AID 743344);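 also: scaled between DMSO vehicle wells and 0.29 µM artemisinin as full inhibition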
# conditionSet: P. falciparum 3D7 in erythrocytes, SYBR Green DNA fluorescence, 72 h; at 28.5 µM unless noted
Measured parasite growth, % of DMSO control by item

The reported parasite growth, % of DMSO control of the compound CC(C)c1cc(C(C)C)c(CC(=O)NS(=O)(=O)Oc2c(C(C)C)cccc2C(C)C)c(C(C)C)c1 was 82.5%

Reported parasite growth, % of DMSO control ( CCCNS(=O)(=O)Nc1ncnc(OCCOc2ncc(Br)cn2)c1-c1ccc(Br)cc1 ) = 102%

Record CC[C@@]1([C@@H]2O[C@@H]([C@H]3O[C@@](O)(CO)[C@H](C)C[C@H]3C)C[C@H]2C)CC[C@H]([C@]2(C)CC[C@]3(C[C@H](O)[C@@H](C)[C@@H]([C@@H](C)[C@@H](OC)[C@H](C)C(=O)O)O3)O2)O1 . Reported parasite growth, % of DMSO control: 5.35% [at 9.64 µM]

// field: parasite growth, % of DMSO control; key: O=C(O)C[C@H](O)C[C@H](O)C=Cc1c(C2CC2)nc2ccccc2c1-c1ccc(F)cc1 ; value = 94%

Entry under test: OCc1ccccc1O[C@@H]1O[C@H](CO)[C@H](O)[C@H](O)[C@H]1O . Its parasite growth, % of DMSO control was 95.9%

parasite growth, % of DMSO control in this record for COC1=C2C[C@@H](C)C[C@H](OC)[C@@H](O)[C@@H](C)C=C(C)[C@H](OC(N)=O)[C@@H](OC)C=CC=C(C)C(=O)NC(=CC1=O)C2=O : 5.43%

# parasite growth, % of DMSO control (compound: O=C(O)CCCCCC(=O)NN=C1CCCC1 ) is 101%

Entry Nc1nc(N)c2nc(-c3cccc(O)c3)c(-c3cccc(O)c3)nc2n1 , parasite growth, % of DMSO control reported as 15.5%
